Recorded values, source the supplement of paper PMC11417369.

- Test system: PF3D7_0420300 AP2 domain 1 (GST-tagged)
- method-description: gcPBM binding intensity (ln(normalized median fluorescence intensity)); higher = stronger DNA binding
In all, about 25,000 sequences were measured (“ln(normalized median fluorescence intensity)”: median about 9.3, highest 2% from about 10 on). This excerpt belongs to a sample that is enriched for the highest values.
Would you mind labelling by gcPBM binding intensity (ln)? At or over 10 is Condition met, under is Condition not met.

chain_sequence="TTTGTGATATTATATTGTACCCTATATTTATTATAA [XGTACX_site4240]" experimental_target="PF3D7_0420300 AP2 domain 1 (GST-tagged)" group_label="Condition not met"

Exam item: Please indicate if the recorded gcPBM binding intensity (ln) for TGCACAAAATTATGCACACACCTAAAATTAATTTTT [CACACA_site5596] meets or exceeds 10.
Marked response: Condition not met

Exam item: Hello, I need to know if ATTATGCACCAACACACACACACACTCCTAAAAAAT [CACACA_site8822] has measured gcPBM binding intensity (ln) not below 10. Thanks!
Marked response: Condition met

* * *

- Tested on: PF3D7_0420300 AP2 domain 1 (GST-tagged)
- method-description: gcPBM binding intensity (ln(normalized median fluorescence intensity)); higher = stronger DNA binding
In all, about 25,000 sequences were measured (“ln(normalized median fluorescence intensity)”: median about 9.3, highest 2% from about 10 on). The full list was thinned out, with the highest values kept by preference.
measurement-name: gcPBM binding intensity (ln)
Number, no unit, nothing else.

Worked cases, gcPBM binding intensity (ln) given:
chain_sequence="AATGTGTAGACACGCACACACAAAAAAATATTTATA [CACACA_site7384]" experimental_value=9.6
chain_sequence="TATATATAAAAACACACACACACACCCTATAATTAT [CACACA_site4063]" experimental_value=10.3
chain_sequence="TATACACCCGGACACACACACATATATATATATATA [CACACA_site5030]" experimental_value=9.94

Exam item: // lookup gcPBM binding intensity (ln) for TTTATTAATAGACACACACACACACGCAAAATAAAA [CACACA_site6255]
Marked response: 10.2

Exam item: Given the sequence ATGGGACATATATATACACACATATATATATATATA [CACACA_site1202] , what is its reported gcPBM binding intensity (ln)?
Marked response: 9.46

* * *

- Tested on: PF3D7_0420300 AP2 domain 1 (GST-tagged)
- method-description: gcPBM binding intensity (ln(normalized median fluorescence intensity)); higher = stronger DNA binding
Over roughly 25,000 sequences, “ln(normalized median fluorescence intensity)” has its median near 9.3; the highest 2% begin near 10. The list comes from a sample in which the highest values are over-represented; it also holds close analogues and randomly drawn sequences.
Entry flag: satisfied if gcPBM binding intensity (ln) reaches 10; not satisfied if it does not.

chain_sequence="TTTTTATGTAGAATTTTTTTATTTTTTCAAAATGGA [CACACA_negctrl_site166]" group_label="not satisfied"
chain_sequence="TATATATATATACATACATGCATATATATATATATA [TGCATGCA_site513]" group_label="not satisfied"
chain_sequence="ATGATCATAAAACACACACACAAAAAAAAAAAAAAA [CACACA_site1805]" group_label="not satisfied"

Exam item: // inclusive: gcPBM binding intensity (ln) at least 10? input: TTATTAATTATATATAGTACACATTTCACAGATGGG [XGTACX_site2349]
Marked response: not satisfied

Exam item: Say whether CACGCATACAGACACACACACACACCGATATATATA [CACACA_site8113] shows gcPBM binding intensity (ln) of 10 or more.
Marked response: satisfied

Exam item: # bool: gcPBM binding intensity (ln) of GGCATACACGGACACACACACACACCGACATATATA [CACACA_site4493] >= 10
Marked response: satisfied

Exam item: Assess whether reported gcPBM binding intensity (ln) for CACTAAAATAGACACACACACACACGGATATAAATA [CACACA_site7873] sits at 10 or higher.
Marked response: satisfied

Exam item: Textbook exercise: given the entry ATAAAGAAAATATGGAGTACATTTATATCCAATATA [XGTACX_site3085] , state whether its gcPBM binding intensity (ln) is greater than or equal to 10.
Marked response: not satisfied

Exam item: Confirm if gcPBM binding intensity (ln) reported for the sequence CAAATATATATTTTCTGTACAAATACAATTAATACT [XGTACX_site2694] is 10 or above.
Marked response: not satisfied

Exam item: Tell me whether gcPBM binding intensity (ln) is at least 10 here: TTTTTTATTTTAATGTATTATTTTTATGTAATATAT [GTGCAC_negctrl_site391]
Marked response: not satisfied

Exam item: # bool: gcPBM binding intensity (ln) of TAAGGATAAATAAAATGAAATGAAATAAATAAATGA [XGTACX_negctrl_site539] >= 10
Marked response: not satisfied

Exam item: Textbook exercise: given the entry CCCGAACAAACAAATAAACACACAAAAAAAAATATA [CACACA_site8540] , state whether its gcPBM binding intensity (ln) is greater than or equal to 10.
Marked response: not satisfied

Exam item: In plain terms: is recorded gcPBM binding intensity (ln) at least 10 for CATATCATTGATTATAGTACACATACCATTTTTTAT [XGTACX_site6572] ?
Marked response: not satisfied

Exam item: Has TAAATAAATAAAAAAACACACATATATATATATATA [CACACA_site4029] a recorded gcPBM binding intensity (ln) greater than or equal to 10?
Marked response: not satisfied

Exam item: Form field: gcPBM binding intensity (ln) at least 10? Entry: TTGCATATTTCTAATTGTACATTATTTTATTTTATA [XGTACX_site8451]
Marked response: not satisfied
